The reported numbers originate from patent US20250313563A1.

# TESTED TARGET: GSK3b (GST-full length GSK3b) (Homo sapiens (Human))
# EXPERIMENT: GSK3b TR-FRET kinase assay
# Format: biochemical
# CONDITIONS USED: 1 nM GSK3b, 2 μM ATP, 30 minute preincubation, Table 16; read-out: GSK3-B TR-FRET BIOCHEMICAL (TR-FRET); IC50
pIC50: −log10 of the molar value.
ENDPOINT: pIC50

Below are worked cases with known answers.
> print(dat)
                                   molecule                             tested.target           val
1  CC[C@]1(c2cccc(-c3cnn(C4CC4(F)F)c3)c2)C2=C(CC(C)(C)NC2=O)Nc2n[nH]cc21 (stereo partly drawn)  GSK3b (GST-full length GSK3b) (Homo sapiens (Human))  6.00 to 7.00
2  CC[C@@]1(c2cccc(-c3cnn(Cc4ccc(C(F)(F)F)cc4)c3)c2)C2=C(CC(C)(C)NC2=O)Nc2n[nH]cc21  GSK3b (GST-full length GSK3b) (Homo sapiens (Human))        < 5.30
3  CC[C@@]1(c2cccc(Oc3ncccn3)c2)C2=C(CC(C)(C)NC2=O)Nc2n[nH]cc21  GSK3b (GST-full length GSK3b) (Homo sapiens (Human))        < 5.30
4  CCC1(c2cccc(-c3c(C)cnc4ccccc34)c2)C2=C(CC(C)(C)NC2=O)Nc2n[nH]cc21 (stereo not drawn) [Compound 950825]  GSK3b (GST-full length GSK3b) (Homo sapiens (Human))        < 5.30
5  CCC1(c2cccc(-c3ccnc(C(F)(F)F)c3)c2)C2=C(CC(C)(C)CC2=O)Nc2n[nH]cc21 (stereo not drawn) [Compound 913350]  GSK3b (GST-full length GSK3b) (Homo sapiens (Human))        ≥ 7.00
6  CC[C@]1(c2cccc(-c3ccnnc3)c2)C2=C(CC(C)(C)CC2=O)Nc2n[nH]cc21  GSK3b (GST-full length GSK3b) (Homo sapiens (Human))        ≥ 7.00
7  Cn1cc(CN2CC3(C2)C2=C(CC(C)(C)CC2=O)Nc2n[nH]cc23)cn1  GSK3b (GST-full length GSK3b) (Homo sapiens (Human))        < 5.30
8  CCC1(c2cccc(N3CCc4cnccc4C3)c2)C2=C(CC(C)(C)CC2=O)Nc2n[nH]cc21 (stereo not drawn)  GSK3b (GST-full length GSK3b) (Homo sapiens (Human))  5.30 to 6.00

As a next step, examine the molecule that follows.
Task: Quick one: give measured pIC50 for CCC1(c2cccc(N(C)c3ccnc(C)c3)c2)C2=C(CC(C)(C)CC2=O)Nc2n[nH]cc21 (stereo not drawn) [Compound 917149]
Output: 5.30 to 6.00

###

# TESTED TARGET: GSK3b (GST-full length GSK3b) (Homo sapiens (Human), UniProt P49841)
# Sequence (P49841 whole entry): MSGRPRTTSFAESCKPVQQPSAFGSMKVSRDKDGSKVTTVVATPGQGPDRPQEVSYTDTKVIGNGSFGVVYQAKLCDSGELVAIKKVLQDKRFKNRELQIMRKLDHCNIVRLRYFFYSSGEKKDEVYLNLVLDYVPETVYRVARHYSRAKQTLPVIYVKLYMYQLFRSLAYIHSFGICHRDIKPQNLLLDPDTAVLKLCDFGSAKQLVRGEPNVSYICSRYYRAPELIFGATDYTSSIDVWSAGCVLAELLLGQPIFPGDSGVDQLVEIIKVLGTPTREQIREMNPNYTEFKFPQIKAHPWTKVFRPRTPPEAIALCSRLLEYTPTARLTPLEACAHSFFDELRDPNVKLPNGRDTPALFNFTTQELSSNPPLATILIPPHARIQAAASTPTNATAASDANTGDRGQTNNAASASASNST
# EXPERIMENT: GSK3b TR-FRET kinase assay
# Assay type: biochemical
# CONDITIONS USED: 1 nM GSK3b, 2 μM ATP, 30 minute preincubation; geometric mean; read-out: GSK3-B TR-FRET BIOCHEMICAL (TR-FRET); GMean; IC50
Property: IC50; scope: individual compounds

Completed entries (count: 10):
> print(dat)
                                    compound             val
 1  CCC1(c2cccc(-c3ccncn3)c2)C2=C(CC(C)(C)CC2=O)Nc2n[nH]cc21 (stereo not drawn) [Compound 806637]  100 to 1000 nM
 2  CCC1(c2cccc(-c3cn(C)nc3C)c2)C2=C(CC(C)(C)NC2=O)Nc2n[nH]c(C(F)F)c21 (stereo not drawn)        ≤ 100 nM
 3  CC[C@]1(c2cccc(-c3cc(C)ncc3F)c2)C2=C(CC(C)(C)NC2=O)Nc2n[nH]cc21       > 5000 nM
 4  CC[C@@]1(c2cccc(-c3ccnc4c3CCC4)c2)C2=C(CC(C)(C)NC2=O)Nc2n[nH]cc21        ≤ 100 nM
 5  CCC1(c2cccc(-c3ccnc(N4CCOCC4)c3)c2)C2=C(CC(C)(C)NC2=O)Nc2n[nH]cc21 (stereo not drawn)        ≤ 100 nM
 6  CC[C@@]1(c2cccc(OC(C)C)c2)C2=C(CC(C)(C)CC2=O)Nc2n[nH]cc21       > 5000 nM
 7  CC[C@@]1(c2ccccc2)C2=C(C[C@]3(CCCOC3)CC2=O)Nc2n[nH]cc21  100 to 1000 nM
 8  CC[C@]1(c2cccc(-c3ccnc(C)c3)c2)C2=C(C[C@]3(CCOC3)NC2=O)Nc2n[nH]cc21  100 to 1000 nM
 9  CC[C@@]1(c2cccc(-c3ccnc4cc(Cl)ccc34)c2)C2=C(CC(C)(C)NC2=O)Nc2n[nH]cc21       > 5000 nM
10  CCC1(c2cccc(-c3cnn(C)c3)c2)C2=C(CC(C)CC2=O)Nc2n[nH]cc21 (stereo not drawn) [Compound 823721]  100 to 1000 nM

Task: Check GSK3b (GST-full length GSK3b) (Homo sapiens (Human), UniProt P49841) data and give IC50 for "CC[C@@]1(c2ccccc2)C2=C(C[C@@]3(CCCOC3)CC2=O)Nc2n[nH]cc21" .
Output: 1000 to 5000 nM

Task: Quote GSK3b (GST-full length GSK3b) (Homo sapiens (Human), UniProt P49841) IC50 for entry CCC1(c2cccc(-c3ccnc4cc(F)c(F)cc34)c2)C2=C(CC(C)(C)NC2=O)Nc2n[nH]cc21 (stereo not drawn) .
Output: > 5000 nM

Task: State recorded IC50 with GSK3b (GST-full length GSK3b) (Homo sapiens (Human), UniProt P49841), entry CCC1(c2cccc(-c3ccnc(C)c3)c2)C2=C(CC3(CCCC3)NC2=O)Nc2n[nH]cc21 (stereo not drawn) , no comment.
Output: > 5000 nM

Task: Find IC50 for CCC1(c2cccc(-c3cncn3C)c2)C2=C(CC(C)(C)NC2=O)Nc2n[nH]c(C(F)(F)F)c21 (stereo not drawn) [Compound 948180] on GSK3b (GST-full length GSK3b) (Homo sapiens (Human), UniProt P49841) and write it down.
Output: ≤ 100 nM

Task: Look up and report measured IC50 (GSK3b (GST-full length GSK3b) (Homo sapiens (Human), UniProt P49841)) for the following compound: CCC1(c2cccc(C(F)(F)F)c2)C2=C(CCN(c3ccccc3C)C2=O)Nc2n[nH]cc21 (stereo not drawn)
Output: 100 to 1000 nM

Task: Recall the reported IC50 of "CC[C@@]1(c2cccc(C(F)(F)F)c2)C2=C(CCN(c3ccc(F)cc3)C2=O)Nc2n[nH]cc21" on GSK3b (GST-full length GSK3b) (Homo sapiens (Human), UniProt P49841) and write it down.
Output: 100 to 1000 nM

Task: Output reported IC50 of the compound CCC1(c2cccc(-c3cnn(C)c3)c2)C2=C(CC(C)CC2=O)Nc2n[nH]cc21 (stereo not drawn) [Compound 816752] on GSK3b (GST-full length GSK3b) (Homo sapiens (Human), UniProt P49841).
Output: 1000 to 5000 nM

Task: Look up and report IC50, with GSK3b (GST-full length GSK3b) (Homo sapiens (Human), UniProt P49841) as system, for "CC[C@@]1(c2cccc(N3CCOCC3)c2)C2=C(CC(C)(C)NC2=O)Nc2n[nH]c(C(F)(F)F)c21"
Output: ≤ 100 nM

###

# TESTED TARGET: GSK3b (GST-full length GSK3b) (Homo sapiens (Human))
# EXPERIMENT: GSK3b TR-FRET kinase assay
# Assay type: biochemical
# CONDITIONS USED: 1 nM GSK3b, 2 μM ATP, 30 minute preincubation, Table 16; read-out: GSK3-B TR-FRET BIOCHEMICAL (TR-FRET); IC50
ENDPOINT: IC50

> print(dat)
                                   molecule  endpoint             val
1  CCC1(c2cccc(-c3cnn(CC#N)c3)c2)C2=C(CC(C)(C)NC2=O)Nc2n[nH]cc21 (stereo not drawn)      IC50  100 to 1000 nM
2  CC[C@@]1(c2ccccc2)C2=C(Nc3n[nH]cc31)[C@H](C)C[C@H](C)C2=O      IC50       > 5000 nM

Below: the item to evaluate.
Task: Return IC50 for the following molecule: CCC1(c2cccc(C3CCOC(C)(C)C3)c2)C2=C(CC(C)(C)CC2=O)Nc2n[nH]cc21 (stereo not drawn) [Compound 912088]
Output: > 5000 nM

###

# TESTED TARGET: UniProt:P49841
# EXPERIMENT: GSK3b TR-FRET kinase assay
# Type: biochemical
# CONDITIONS USED: 1 nM GSK3b, 2 μM ATP, 30 minute preincubation, Table 16; read-out: GSK3-B TR-FRET BIOCHEMICAL (TR-FRET)
pIC50: −log10 of the molar value.
ENDPOINT: pIC50

For orientation, consider the following solved cases.
> print(dat)
                        structure.as.smiles  endpoint           val
1  Cc1cc([C@H]2CC[C@@]3(CC2)C2=C(CC(C)(C)CC2=O)Nc2n[nH]cc23)ccn1     pIC50        ≥ 7.00
2    CC1(C)CC(=O)C2=C(C1)Nc1n[nH]cc1C21COC1     pIC50  6.00 to 7.00
3  CC1(C)CC(=O)C2=C(C1)Nc1n[nH]cc1[C@]21C[C@H](c2ccncc2)C1     pIC50  6.00 to 7.00
4  CC[C@@H]1C[C@@]2(CCO1)C1=C(CC(C)(C)CC1=O)Nc1n[nH]cc12     pIC50  6.00 to 7.00
5  CC[C@]1(c2cccc(-c3ccncc3F)c2)C2=C(CC(C)(C)CC2=O)Nc2n[nH]c(C(F)(F)F)c21     pIC50        ≥ 7.00

Turning now to a further record.
Task: Fill in reported pIC50 for this entry: "Cc1cc(S(=O)(=O)N2CCC3(CC2)C2=C(CC(C)(C)CC2=O)Nc2n[nH]cc23)ccc1OC(C)C"
Output: 6.00 to 7.00
